Test system: K4 kissing-loop RNA reporter
Assay: apparent KD of K4 kissing-loop reporter; higher = weaker reporter binding
Conditions: Eterna round: R107; input ligand: none
Tag: 1 (yes) if measured apparent KD of K4 kissing-loop reporter is not below 400 nM, 0 (no) if it is.

Please review the entries below; each comes with its answer.
| Primary sequence | Discrete label |
| --- | --- |
| CCGGCCCGGCCGGAUACCAGUGCGCCGCUGGGAACUGCGGGCCCAGAGUGAUGUUCGGGACACCCUUGGCAGCCGCCUGGGUCGC [#2 Same State - Theophylline B Attempt #25 (HarryS)] | 1 (yes) |
| UGGUUUGGAAGUGAUGUUUCUAUAAGUGAUACCAGACAAAAGAAAGUCCCUUGGCAGCACAAUGAUGCCAAGGAAACGGCAUGAU [#15 K4 Theophylline A Same State] | 0 (no) |
| CUCUAACUGAGAAGGAGCGCGAUAUAAACACUCGCACAGUGAUGUUGUGUGUCAAGGGUAUCGCAGGUAGGUCGCUCAGAUACCU [Arg B SS t15] | 0 (no) |
| AAAUUUUAAAGUGAUACCAGACAUCUCAAUUACAUUAAUAAAGCUAAGUGAUGUUUAGCAGUCCCUUGGCAGCACAAUUUAAUUA [JR_SSTheophyB_Sub011] | 0 (no) |
| AUCAUUGAGUGAUGUUCAAUGGGUUUUCCCAAGGAUAUUCGGAGCUGAAGAAGGUGGCCCUCGAUAUCAGUAUCAACCUGAAAGC [theeternabot_exclusion_KL_FMN_A_11] | 0 (no) |

Now consider a different sequence.
# input apparent KD of K4 kissing-loop reporter >= 400 nM for GGUAGUGCUAGCGAUACCAGUCAUAUCGCUCUGGAGUGAUGUUCCGGAACGUGCGGAGAAGACCCUUGGCAGCGCUUGACGGUGU [Exclusion Theophylline B GF5] ?
# output 0 (no)

====

System: K4 kissing-loop RNA reporter
Experiment: apparent KD of K4 kissing-loop reporter; higher = weaker reporter binding
Conditions: Eterna round: R107; input ligand: none
Entries and their measured apparent KD of K4 kissing-loop reporter follow.
Entry rule: numbers only, all in nM.

| Primary sequence | apparent KD of K4 kissing-loop reporter (nM) |
| --- | --- |
| GUGCGGCUAGUGAUGUUGGUUGUGUGGGAAGGAGCGCAGAUUCAUGCAGGUAGGUCGCCCACACGUCUGAAAGGAUGAUAAUUCA [#12 K4 Arginine A Same State] | 354 |
| GUCCCGAGUGAUGUUCGGGUCGUUCGGGAAGGAGCGCCCGGAAGGGCAGGUAGGUCGCCCGGAUCCCUCAGGUAACUGAGGGACC [#2 Same State - Arginine A Attempt #25 (HarryS)] | 553 |

Now consider the entry below.
# input Any idea what apparent KD of K4 kissing-loop reporter was measured for UCACGAGUGAUGUUCGUCGCAAUCACCGAAGGAGCGGGCGAAAGCCCAGGUAGGUCGCGGUAGAAUAAUGAUUUUAUUCGAUUGC [Same State Arginine A GF 26] ?
# output 756

====

Test system: MS2 coat protein
Assay: apparent KD of MS2 coat protein; higher = weaker reporter binding
Conditions: Eterna round: R107; input ligand: none
Kindly return Fulfilled if reported apparent KD of MS2 coat protein is no lower than 60 nM; return Not fulfilled if it is lower.

For orientation, consider the following solved cases.
| Primary sequence | Discrete label |
| --- | --- |
| UGUAUGGACUGAAGGAGCGGGUUGAUAACUUGAGGAUCACCCAGGUAAAAGGCGAAAGCCGCCCAGGUAGGUCGCAGUCCAUACU | Not fulfilled |
| UAUCCACAUGAGGAUCACCCAUGUUAGGAAGGAGCGGUGAGUGCACCAGGUAGGUCGCCUAGCUGAGGACUGUCGGUGGAUUCGU [Exclusion - Arginine A (Freestyle 20)] | Fulfilled |
| GCACCAGGUACGGAUACCAGCUAUAGGCACAGAGGAGGACAUGAGGAUCACCCAUGUGAUGGCCCUUGGCAGCUGUACCUGGUGC [EThB NP+V+V2 #3] | Not fulfilled |

# input Check the entry ACGAUAGGACCUGAGGAUCACCCUGGUGAUACCAGCCUGGAAACAGGCCCUUGGCAGCACAAAUACUCCAAUAACCUAUCGAAUA [TheoAX 13 #MicroSwitchBubble #AlternativeMS2] : does apparent KD of MS2 coat protein equal or exceed 60 nM?
# output Fulfilled

====

System: MS2 coat protein
Experiment: apparent KD of MS2 coat protein; higher = weaker reporter binding
Details: Eterna round: R107; input ligand: tryptophan 2.4 mM
Classify as follows. Reported apparent KD of MS2 coat protein greater than or equal to 30 nM: YES. Reported apparent KD of MS2 coat protein below: NO.

| Primary sequence | Discrete label |
| --- | --- |
| AGUGCUACGUGUAAUCAAAGAGAACCAGAUACCAGAUUAGCAUACAUCCCUUGGCAGCUGCAUACAUGAGGAUCACCCAUGUCAG [theeternabot_exclusion_MS2_Theo_A_31] | YES |
| UGAGUUAGACAAAAGUCUAGCUCUGGUGAAGGAGCGUCCGAAAGGACAGGUAGGUCGCACCACCUGAGGAUCACCCGGGUUCCUA [ArgAS 13 #OpenEnded #AlternativeMS2] | YES |
| ACAUGAGGAUGGGAUACCAGAUACAUGAGGAUCACCCAUACAUGAGGAUCACCCAUGUCCGUCCCUUGGCAGCCCAACAUGAGGA [Exclusion Theophylline B] | YES |

# input Quick check, apparent KD of MS2 coat protein >= 30 nM? AGUUAUUUCCGAAGGAGCGUUAUACAUGAGGAUCACCCAUGUACAUGAGGUUCAACAUGAAAACAGGUAGGUCGCGGAUUUUGUC [Exclusion Arginine B4]
# output NO

# input Item UCGCUCGCCGAAAGGCGAGCGAGUUGCGAUACCAGCCCGGAAACGGGCCCUUGGCAGCGCACAUGAGGAUCACCCAUGUCAUGUU [#1 Exclusion - Theophylline A Attempt #3 (HarryS)] with apparent KD of MS2 coat protein of 30 nM or above?
# output YES

====

Test system: MS2 coat protein
Test: apparent KD of MS2 coat protein; designed switch direction (-1 OFF switch, 1 ON switch): 1; higher = weaker reporter binding
Conditions: Eterna round: R98; input ligand: FMN 200 uM
Reported property: apparent KD of MS2 coat protein (nM)
Response body: numeric value in nM, unit text excluded.

Sample records with apparent KD of MS2 coat protein:
| Primary sequence | apparent KD of MS2 coat protein / nM |
| --- | --- |
| GUAGCAUACCGAGGAUAUUCAUACCGGAAACGGACAUGAGGAUCACCCAUGUAAAUUCUAAAUUGGGAGAAGGCGGAAUGCUAC [Xeonanis 75 6] | 46.6 |
| CCAAUAUAGUGAGGAUAUGCACAGGAUCACCGUGUAGAAGGCAUCAGGUAGAAGGUGCAGAGGAUCACCCUGUAAGGAUAUACA [pwkr2 ssNG1 DX.7] | 129 |
| UAGAUAUGGUGAGGAUAUGCAAAGGAUCACCUUGUAGAAGGCAUCAGGGUAGAAGGUGCAAGGAUCACCUGUAAGGAUAUAUCC [pwkr2 ssNG1 DX.32] | 448 |

Field: next sequence
# input Look up apparent KD of MS2 coat protein with MS2 coat protein for this sequence: GACGGAUUCUUAGGAUAUGCUCAGGAAUACUGAGCAGAAGGAAGAAUAACCUGAGGAUCACCCAGGUAAUACUGAACGUCAAUA [Same State NG1 - A3C, U17G Submission 9A]
# output 23.7

====

Tested on: K4 kissing-loop RNA reporter;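 note: bound reporter read as fluorescence of individual clusters on recovered sequencing chips by microscopy, with normalized cluster intensities fitted with a binding model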
Test: apparent KD of K4 kissing-loop reporter; higher = weaker reporter binding
Conditions: Eterna round: R107; input ligand: FMN 200 uM
A collection of sequences and their measured apparent KD of K4 kissing-loop reporter
// note: answer is a bare numeric in nM

Use the examples below as a reference point.
| Primary sequence | apparent KD of K4 kissing-loop reporter (nM) |
| --- | --- |
| UCUCGGGCCAGUGAUGUUGGCGGCUAGUGGCGAGGACCGGUACGGCCGCCACUCGGCGCAGCAGCGGAGUGAUGUUUCGUGAGUA [Same State Tryptophan A GF 17] | 363 |
| UGUCAUGGAAACAUGAACGUUGAUGUUCGACGAGGACCGGUACGGCCGCCACUCGAGUAAUAGUCAGUGAUGUUGACUGGGCUAA [KL-SSTryp-A form1 sub2] | 146 |
| AAUAAGCGCCGAAGGAGCGGCCUCCGAGUGAUGUUCGGUGAGAUGCCAGUGAUGUUGGCCGGCCAGGUAGGUCGCGGCAAAGCUU [Same State Arginine B GF 29] | 154 |
| AAGUCAUAGGCAGGAUAUGCAUUGUAAUAAGGCAAUAUAUACGUAUAGAGUGAUGUUUUGUACCAGGCAGAAGGGCUACAUCAGU [FMN B Excl V10 (+5A/U)] | 674 |
| UUUGUAUAGGGAAGGAGCGUGAAUGAUAAUGAAUAUAGUGAUGUUAUAUAUAAGAAAGAAUCACAGGUAGGUCGCCCGGAGGAGG [SSArgB.J] | 612 |

# input Item GUCCCGAGUGAUGUUCGGGUCGUUCGGGAAGGAGCGCCCGGAAGGGCAGGUAGGUCGCCCGGAUCCCUCAGGUAACUGAGGGACC [#2 Same State - Arginine A Attempt #25 (HarryS)] has what recorded apparent KD of K4 kissing-loop reporter?
# output 483

# input Which apparent KD of K4 kissing-loop reporter value belongs to AGGACGUGAGAAGAUACCAGAGAAUAAUGCAGUGAUGUUGCUAAAUAUAAUUUAAUAUAACUCCCUUGGCAGCUUAAGUUAGUCU [Theophylline b same state] ?
# output 75.2

# input Requested field: apparent KD of K4 kissing-loop reporter. Item: AGAACUGUCUGAGAUACCAGCUAAGGAGUGAUGUUCCUAAGUCCACGAAAGUGGACUCAUAGCCCUUGGCAGCUCAGACAGUUCA [#24 K4 Theophylline B Same State]
# output 1150

# input So what's the measured apparent KD of K4 kissing-loop reporter for this one? CCCUCACGAGUGAUGUUCGUAGGGUACAGUCAGGAUAUCAUGCGGUUGAGAAGGGACAGAGAGGGCGGCGGCGGGUUGCUCAUCU [Isanausbe]
# output 197

# input I am curious: what apparent KD of K4 kissing-loop reporter value has been reported for CAGAACUUAUAUAGAAACUAUAUAAGAGAUACCAGUCAAAUUAAAGACCCUUGGCAGCUCAGGCGAGUGAUGUUCGCAGGCUAAC [Astros-Gfrank-modulation#1] ?
# output 99.3

# input Which apparent KD of K4 kissing-loop reporter reading was recorded for the sequence AGGGUAAGGCGUUAACAUGACACCUGGGAAGGAGCGCGGUACACCGCAGGUAGGUCGCCCAGUGAUGUUGGGCGUAAGUAUGAGU [KL-XArg-A22] ?
# output 137

Reference for the values: the supplement of paper PMC9170038
